Target: T1, human Dectin-1 (biosensor tests of Tables 3, 4A and 9; construct not stated) (human, UniProt Q9BXN2 66-247, limits assumed)
T1 construct: also called hDectin-1
T1 sequence (looked up): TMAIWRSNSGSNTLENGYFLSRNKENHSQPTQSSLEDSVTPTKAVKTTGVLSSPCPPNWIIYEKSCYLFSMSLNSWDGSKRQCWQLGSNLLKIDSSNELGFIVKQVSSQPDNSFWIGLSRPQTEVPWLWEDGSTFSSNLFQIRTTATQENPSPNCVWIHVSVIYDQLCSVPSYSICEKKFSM
Assay: Fab K dis, run 3
reportedMetric: koff (s⁻¹)
Numbers only, in s⁻¹.

(Q) Name the reported koff value associated with the binder 2M24A.33 hFab L4 (Fab, V domains shown, Fab; also called 2M24.L4) VH: QVQLVQSGAEVKKPGASVKVSCKSSGYTFTDYYIHWVRQAPGQGLEWMGWINPNSGDTNYAQKFQGRITMTRDTSISTAYLELSRLRSDDTAVFYCARNSGSYSFGYWGQGTLVTVSS VL: DIQMTQSPSSVSASVGDRVTITCRASQGISSWLAWYQQKPGKAPKLLIYAASSLQSGVPSRFSGSGSGTDFTLTISSLQPEDFATYYCQQAYSFPFTFGPGTKVDIE
(A) 0.00314

Numbers sourced from patent US20250230247A1.
